system: GPR3 A201W mutant (Homo sapiens, UniProt P46089, A201W)
Sequence (P46089 whole entry A201W): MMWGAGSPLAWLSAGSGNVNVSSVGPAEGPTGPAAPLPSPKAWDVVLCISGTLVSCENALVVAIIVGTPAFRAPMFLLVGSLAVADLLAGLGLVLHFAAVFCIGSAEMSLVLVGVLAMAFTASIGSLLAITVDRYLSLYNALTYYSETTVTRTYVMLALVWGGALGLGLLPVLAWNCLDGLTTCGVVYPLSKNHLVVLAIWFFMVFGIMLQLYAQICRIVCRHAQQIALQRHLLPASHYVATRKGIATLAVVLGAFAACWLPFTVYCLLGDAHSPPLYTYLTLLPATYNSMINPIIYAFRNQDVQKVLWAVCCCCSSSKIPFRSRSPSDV
assay_protocol: OA dose-response, GloSensor cAMP assay, AD293 stably expressing GPR3 A201W mutant
assay_conditions: Table S3, A201W
Description: The GloSensor cAMP assay was performed according to the instructions of Promega. AD293 cells were split into 6-well plate (300,000 cells/mL) and then transfected with the pGloSensor™-22F cAMP plasmid and pcDNA3-GPR3 plasmid by Lipofectamine 2000, at a ratio of 2:1 (μL:μg). […] Relative cAMP level was calculated by the cAMP level after addition of ligand divided by the cAMP level before addition of ligand (basal level). […]
experimental_endpoint: EC50
Quote the value and follow it with the unit of measurement.

Give recorded EC50 with GPR3 A201W mutant (Homo sapiens, UniProt P46089, A201W) for the following compound: "CCCCCCCC/C=C\CCCCCCCC(=O)O"
291 µM

----------
system: GPR3 (Homo sapiens)
Construct: expressed in transfected cells
Sequence (P46089 whole entry): as the sequence (P46089 whole entry A201W) above, with W201A counted along it
assay_protocol: GloSensor cAMP assay in GPR3 stably expressing AD293 cell line (agonist mode)
Format: cell-based
assay_conditions: Table S2; relative cAMP level; at 500 μM (FA 12:0, 16:1, 18:0, OEA 18:1, OLM 18:1), 450 μM (FA 18:1), 400 μM (FA 16:0), 300 μM (FA 22:0, 18:2), 100 μM (FAME 18:0, FAEE 18:0, lysophospholipids), 3 μM (LTB4)
experimental_endpoint: maximum response
Form rule: numeric answer, no unit written next to it.

Here is how some compounds turned out for maximum response.
[
  {
    "compound": "CCCCC/C=C\\C[C@@H](O)/C=C/C=C/C=C\\[C@@H](O)CCCC(=O)O",
    "maximum response": 0.8
  },
  {
    "compound": "CCCCC/C=C\\C/C=C\\CCCCCCCC(=O)O",
    "maximum response": 2.9
  },
  {
    "compound": "CCCCCCCC/C=C\\CCCCCCCC(N)=O [OLM, Oleamide]",
    "maximum response": 75.1
  }
]

Now consider a different compound.
Form field: reported maximum response of "CCCCCCCCCCCCCCCC(=O)O"
118.7

Hey, just so you know, these numbers are from paper PMC10907358.
